meta.source: ChEMBL document CHEMBL5325436

For each entry below, report its Activity value.
# assay system: Protein cereblon/Phospholipid hydroperoxide glutathione peroxidase GPX4 (Homo sapiens) (UniProt Q96SW2+P36969)
# Sequence (P36969 whole entry, looked up): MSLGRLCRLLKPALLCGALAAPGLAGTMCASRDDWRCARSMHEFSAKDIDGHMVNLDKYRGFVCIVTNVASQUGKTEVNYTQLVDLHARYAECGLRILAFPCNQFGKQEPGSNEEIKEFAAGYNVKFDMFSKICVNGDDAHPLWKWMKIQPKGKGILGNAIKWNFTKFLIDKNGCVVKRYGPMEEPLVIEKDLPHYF
# Sequence (Q96SW2 whole entry, looked up): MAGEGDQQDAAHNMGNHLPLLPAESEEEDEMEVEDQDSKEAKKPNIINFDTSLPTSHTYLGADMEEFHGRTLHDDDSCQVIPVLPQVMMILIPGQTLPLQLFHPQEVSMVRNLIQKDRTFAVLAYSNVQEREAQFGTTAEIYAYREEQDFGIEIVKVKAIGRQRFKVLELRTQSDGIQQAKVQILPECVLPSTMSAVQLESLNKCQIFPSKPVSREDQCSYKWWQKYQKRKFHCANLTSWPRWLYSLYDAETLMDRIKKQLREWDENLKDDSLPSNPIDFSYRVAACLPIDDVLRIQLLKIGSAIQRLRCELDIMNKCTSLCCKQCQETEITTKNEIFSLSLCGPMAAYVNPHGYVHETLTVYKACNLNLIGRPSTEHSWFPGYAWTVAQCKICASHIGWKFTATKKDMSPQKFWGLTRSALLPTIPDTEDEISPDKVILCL
# method description: PROTAC activity at CRBN/GPX4 in human HT-1080 cells assessed as induction of GPX4 degradation at 1 uM incubated for 24 hrs by Western blot analysis relative to control
# Assay type: cell-based
One number for each entry, in %.

Cc1onc(C(=O)N2CCN(C(c3ccc(Cl)cc3)c3ccc(OCC(=O)N4CCN(CCCCCCCCCCNc5cccc6c5CN(C5CCC(=O)NC5=O)C6=O)CC4)cc3)CC2)c1[N+](=O)[O-] (stereo not given)    43
Cc1onc(C(=O)N2CCN(C(c3ccc(Cl)cc3)c3ccc(OCC(=O)N4CCC(CN5CCC(CN6CCC(Nc7cccc8c7C(=O)N(C7CCC(=O)NC7=O)C8=O)CC6)CC5)CC4)cc3)CC2)c1[N+](=O)[O-] (stereo not given)    25

I'd like to know its Activity. The compound in question is Cc1onc(C(=O)N2CCN(C(c3ccc(Cl)cc3)c3ccc(OCC(=O)N4CCC(CN5CCC(CN6CCN(c7cccc8c7C(=O)N(C7CCC(=O)NC7=O)C8=O)CC6)CC5)CC4)cc3)CC2)c1[N+](=O)[O-] (stereo not given)
30

* * *

I'd appreciate it if you could supply Activity values for the items below.
# assay system: Protein cereblon/Phospholipid hydroperoxide glutathione peroxidase GPX4 (Homo sapiens) (UniProt Q96SW2+P36969)
# method description: PROTAC activity at CRBN/GPX4 in human HT-1080 cells assessed as induction of GPX4 degradation at 0.1 uM incubated for 24 hrs by Western blot analysis relative to control
# Assay type: cell-based
One number for each entry, in %.

# annotated cases, reported Activity shown
Cc1onc(C(=O)N2CCN(C(c3ccc(Cl)cc3)c3ccc(OCC(=O)N4CCC(CN5CCN(CCCNc6cccc7c6C(=O)N(C6CCC(=O)NC6=O)C7=O)CC5)CC4)cc3)CC2)c1[N+](=O)[O-] (stereo not given)    82
Cc1onc(C(=O)N2CCN(C(c3ccc(Cl)cc3)c3ccc(OCC(=O)N4CCC(CN5CCN(CCCCCNc6cccc7c6C(=O)N(C6CCC(=O)NC6=O)C7=O)CC5)CC4)cc3)CC2)c1[N+](=O)[O-] (stereo not given)    33

For every record below, what is its Activity?
1. Cc1onc(C(=O)N2CCN(C(c3ccc(Cl)cc3)c3ccc(OCC(=O)N4CCC(CN5CCN(CCCCCCNc6cccc7c6C(=O)N(C6CCC(=O)NC6=O)C7=O)CC5)CC4)cc3)CC2)c1[N+](=O)[O-] (stereo not given)
2. Cc1onc(C(=O)N2CCN(C(c3ccc(Cl)cc3)c3ccc(OCC(=O)N4CCC(CN5CCN(CCNc6cccc7c6C(=O)N(C6CCC(=O)NC6=O)C7=O)CC5)CC4)cc3)CC2)c1[N+](=O)[O-] (stereo not given)
3. Cc1onc(C(=O)N2CCN(C(c3ccc(Cl)cc3)c3ccc(OCC(=O)N4CCC(CN5CCN(CCCCNc6cccc7c6C(=O)N(C6CCC(=O)NC6=O)C7=O)CC5)CC4)cc3)CC2)c1[N+](=O)[O-] (stereo not given)

1: 50; 2: 36; 3: 42

* * *

# method description: Cytotoxicity against HEK293T cells assessed as reduction in cell viability measured after 24 hrs by MTT assay
# Assay type: toxicity, cell-based, HEK-293T
# experimental conditions: human
assay endpoint: IC50 at 24 h (µM)
Give bare numbers, in µM.

Cc1onc(C(=O)N2CCN(C(c3ccc(Cl)cc3)c3ccc(Cl)cc3)CC2)c1[N+](=O)[O-]    0.2

Param item = Cc1onc(C(=O)N2CCN(C(c3ccc(Cl)cc3)c3ccc(OCC(=O)N4CCC(CN5CCN(CCCNc6cccc7c6C(=O)N(C6CCC(=O)NC6=O)C7=O)CC5)CC4)cc3)CC2)c1[N+](=O)[O-] (configuration not stated) ; retrieve measured IC50 at 24 h.
1.1
